# TARGET: b-Raf (V600E) (Homo sapiens (Human), UniProt P15056, V600E)
# Sequence (P15056 whole entry V600E): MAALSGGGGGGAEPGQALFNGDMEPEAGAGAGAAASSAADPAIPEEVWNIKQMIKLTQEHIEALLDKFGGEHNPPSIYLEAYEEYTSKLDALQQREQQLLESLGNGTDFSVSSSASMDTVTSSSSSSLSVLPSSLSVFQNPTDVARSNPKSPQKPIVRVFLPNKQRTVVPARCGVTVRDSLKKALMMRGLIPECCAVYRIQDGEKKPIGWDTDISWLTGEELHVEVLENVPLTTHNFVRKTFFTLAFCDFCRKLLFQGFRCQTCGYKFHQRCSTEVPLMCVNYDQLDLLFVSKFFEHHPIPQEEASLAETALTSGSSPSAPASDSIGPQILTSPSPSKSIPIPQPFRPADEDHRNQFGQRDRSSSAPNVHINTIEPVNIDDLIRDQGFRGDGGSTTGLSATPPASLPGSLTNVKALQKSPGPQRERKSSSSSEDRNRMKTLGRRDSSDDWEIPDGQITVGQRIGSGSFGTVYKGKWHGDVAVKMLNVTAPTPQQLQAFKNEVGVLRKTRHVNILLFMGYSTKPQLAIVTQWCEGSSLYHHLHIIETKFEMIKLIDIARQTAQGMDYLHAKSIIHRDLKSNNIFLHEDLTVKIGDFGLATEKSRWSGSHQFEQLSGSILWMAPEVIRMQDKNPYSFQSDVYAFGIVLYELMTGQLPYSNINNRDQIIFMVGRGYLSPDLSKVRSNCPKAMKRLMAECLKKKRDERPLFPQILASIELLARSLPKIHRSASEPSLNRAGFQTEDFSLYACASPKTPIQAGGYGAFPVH
# STATED CONDITIONS: read-out: b-Raf IC-50; AlphaScreen, 60 min pre-incubation, 3 hours reaction
ENDPOINT: IC50 (nM)

{"COMPOUND": "CCOc1nnc(-c2cc(NC(=O)c3cc(C(F)(F)F)ccn3)cnc2C)cc1N1CCOCC1 [Example 611]", "ENDPOINT": "IC50", "UNIT LABEL": "nM", "OBS VALUE": 1.3}

I: Cc1ccc(NC(=O)c2ccnc(C3(C#N)CC3)c2)cc1-c1cc(N2CCOCC2)n(C)c(=O)c1 [Example 480]
II: COCCOc1nnc(-c2cc(NC(=O)c3ccnc(C(C)(C)C#N)c3)ccc2C)cc1N1CCOCC1 [Example 601]
Returns: the label, I or II , whose recorded IC50 is the lower number. Reply with the label of the item you choose.
I

---

# TARGET: b-Raf (V600E) (Homo sapiens (Human), UniProt P15056, V600E)
# STATED CONDITIONS: read-out: b-Raf IC-50; AlphaScreen, 60 min pre-incubation, reaction 3 hours at room temperature
ENDPOINT: IC50 (nM)

1: Cc1ncc(NC(=O)c2cccc(C(F)(F)F)c2)cc1-c1cnc(CC2(O)CCOCC2)c(N2CCOCC2)c1
2: Cc1ncc(NC(=O)c2ccnc(C(F)F)c2)cc1-c1cc(NCCO)nc(N2CCOC[C@H]2C)c1
3: Cc1ncc(NC(=O)c2ccc(C#N)c(C(F)(F)F)c2)cc1-c1cc(N2CCOCC2)c2nccn2c1
Order each entry by recorded IC50, climbing from the minimum. Form entry: labels listed in requested order.
3, 1, 2

---

# TARGET: b-Raf (V600E) (Homo sapiens (Human), UniProt P15056, V600E)
# STATED CONDITIONS: read-out: b-Raf IC-50; AlphaScreen, 60 min pre-incubation, 3 hours reaction
ENDPOINT: IC50 (nM)

Worked set:
{"MOLECULE": "Cc1ccc(NC(=O)c2ccnc(C(F)(F)F)c2)cc1-c1cc(N2CCOCC2)c(=O)n(C)n1 [Example 658]", "TARGET": "b-Raf (V600E) (Homo sapiens (Human), UniProt P15056, V600E)", "OBS VALUE": 3.1}
{"MOLECULE": "Cc1ccc(C(=O)Nc2cccc(C(F)(F)F)c2)cc1-c1cc(N2CCOCC2)nc(N2CC(O)C2)n1 [Example 766]", "TARGET": "b-Raf (V600E) (Homo sapiens (Human), UniProt P15056, V600E)", "OBS VALUE": 1.8}
{"MOLECULE": "CCNc1nc(-c2cc(NC(=O)c3ccnc(S(C)(=O)=O)c3)ccc2C)cc(N2CCOCC2)n1 [Example 702]", "TARGET": "b-Raf (V600E) (Homo sapiens (Human), UniProt P15056, V600E)", "OBS VALUE": 3}
{"MOLECULE": "CCOc1nnc(-c2cc(NC(=O)c3ccnc(C(F)(F)CC)c3)ccc2C)cc1N1CCOCC1 [Example 560]", "TARGET": "b-Raf (V600E) (Homo sapiens (Human), UniProt P15056, V600E)", "OBS VALUE": 1}
{"MOLECULE": "Cc1ccc(NC(=O)c2cccc(C3COC3)c2)cc1-c1cc(N2CCOCC2)n(C)c(=O)c1 [Example 492]", "TARGET": "b-Raf (V600E) (Homo sapiens (Human), UniProt P15056, V600E)", "OBS VALUE": 3}

a: COc1ncc(-c2cc(NC(=O)c3ccnc(S(C)(=O)=O)c3)ccc2C)nc1N1CCOCC1 [Example 546]
b: CCc1cc(C(=O)Nc2ccc(C)c(-c3cc(N4CCOCC4)n(C)c(=O)c3)c2)ccn1 [Example 476]
c: Cc1ccc(NC(=O)c2ccnc(C(C)(C)C#N)c2)cc1-c1cc(N2CCOCC2)c2nccn2n1 [Example 844]
d: Cc1ncc(NC(=O)c2ccnc(C(C)(C)C#N)c2)cc1-c1cc(N2CCOCC2)nc(N2CC(O)C2)n1 [Example 767]
e: CCn1cc(C(=O)Nc2cnc(C)c(-c3cc(N4CCOCC4)n(C)c(=O)c3)c2)cc(C(F)(F)F)c1=O [Example 502]
Ranking field: IC50; order: falling. Form entry: labels listed in requested order.
d, e, a, c, b

I: Cc1ncc(NC(=O)c2cccc(C(F)(F)F)c2)cc1-c1cc(N2CCOCC2)nc(N[C@H](C)CO)n1 [Example 748]
II: Cc1ncc(NC(=O)c2cccc(C(F)(F)F)c2)cc1-c1cc(N2CCOCC2)n2nccc2n1 [Example 793]
III: Cc1ncc(NC(=O)c2ccnc(C3(C#N)CC3)c2)cc1-c1cc(N2CCOCC2)c(=O)n(C)n1 [Example 683]
IV: Cc1ncc(NC(=O)c2ccnc(C(C)(C)C#N)c2)cc1-c1cc(N2CCOCC2)nc(NC(C)(C)CO)n1 [Example 750]
In this exercise, place the 4 molecules in ascending sequence of their recorded IC50. Form entry: labels listed in requested order.
II, I, III, IV
(II: 1.3 nM, I: 1.9 nM, III: 11.2 nM, IV: 22.4 nM)

1: CCNc1nc(-c2cc(NC(=O)c3ccnc(C(C)(C)C)c3)ccc2C)cc(N2CCOCC2)n1 [Example 696]
2: Cc1ncc(NC(=O)c2cc(C(F)(F)F)ccn2)cc1-c1cc(N2CCOCC2)n2nccc2n1 [Example 810]
Which of the two gives a bigger number for IC50: 1 or 2 ? Reply with the label of the item you choose.
1

Values compiled from patent US9694016B2.
